System under test: UniProt Q96RI1
Sequence (Q96RI1 whole entry): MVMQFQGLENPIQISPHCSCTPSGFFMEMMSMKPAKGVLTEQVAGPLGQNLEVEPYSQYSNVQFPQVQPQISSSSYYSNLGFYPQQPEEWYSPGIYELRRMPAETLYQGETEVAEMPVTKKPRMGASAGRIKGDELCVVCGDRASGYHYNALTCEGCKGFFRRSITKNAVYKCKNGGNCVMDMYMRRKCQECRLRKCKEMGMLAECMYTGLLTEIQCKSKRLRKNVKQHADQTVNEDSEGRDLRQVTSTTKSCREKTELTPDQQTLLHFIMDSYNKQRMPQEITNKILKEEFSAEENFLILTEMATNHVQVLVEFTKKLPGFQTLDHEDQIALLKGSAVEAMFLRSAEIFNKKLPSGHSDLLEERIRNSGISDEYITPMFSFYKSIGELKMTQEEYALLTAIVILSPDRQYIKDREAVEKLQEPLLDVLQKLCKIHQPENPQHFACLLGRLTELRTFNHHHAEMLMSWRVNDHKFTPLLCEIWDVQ
Assay: FRET recruitment of SRC-1 peptide to human FXR, cell-free ELiSA
Assay endpoint: EC50
The answer consists of two parts: a number and, after it, its unit.

Per the records, this molecule ( C[C@H]1[C@@H](O)C2C3CC[C@H]([C@H](C)CCC(=O)O)[C@@]3(C)CCC2[C@@]2(C)CC[C@@H](O)C[C@@H]12 (stereo partly shown) ) has EC50 equal to 210 nM

====

Tested on: HepG2 cells
Assay: cells
Details: Homo sapiens, HepG2, 4 h, read-out: APOPTOSIS Caspase-3 activation EC50
I'd appreciate it if you could supply EC50 values for the items below.
Value expressed in µM; do not type the unit.

Per the records, this compound ( `C[C@H](CCC(=O)O)[C@H]1CC[C@H]2[C@@H]3[C@H](O)C[C@@H]4C[C@H](O)CC[C@]4(C)[C@H]3CC[C@]12C` ) has EC50 equal to 890

Per the records, this compound ( `C[C@H](CCC(=O)O)[C@H]1CC[C@H]2[C@@H]3CC[C@@H]4C[C@H](O)CC[C@]4(C)[C@H]3CC[C@]12C` ) has EC50 equal to 65

====

Assay: in vitro
Details: human, s9
Assay endpoint: half-life (h)
Value expressed in h; do not type the unit.

Per the records, this molecule ( CC[C@H]1[C@@H](O)[C@@H]2[C@H](C[C@H](O)[C@]3(C)[C@@H]([C@H](C)C[C@H](C)C(=O)O)CC[C@@H]23)[C@@]2(C)CC[C@@H](O)C[C@@H]12 [Ih3e] ) has half-life equal to 12.1

Per the records, this molecule ( O=c1ccc2ccc(O)cc2o1 [7-Hydroxy Coumarine, reference compound] ) has half-life equal to 0.142

====

System under test: PXR (Homo sapiens)
Sequence (O75469 1-434): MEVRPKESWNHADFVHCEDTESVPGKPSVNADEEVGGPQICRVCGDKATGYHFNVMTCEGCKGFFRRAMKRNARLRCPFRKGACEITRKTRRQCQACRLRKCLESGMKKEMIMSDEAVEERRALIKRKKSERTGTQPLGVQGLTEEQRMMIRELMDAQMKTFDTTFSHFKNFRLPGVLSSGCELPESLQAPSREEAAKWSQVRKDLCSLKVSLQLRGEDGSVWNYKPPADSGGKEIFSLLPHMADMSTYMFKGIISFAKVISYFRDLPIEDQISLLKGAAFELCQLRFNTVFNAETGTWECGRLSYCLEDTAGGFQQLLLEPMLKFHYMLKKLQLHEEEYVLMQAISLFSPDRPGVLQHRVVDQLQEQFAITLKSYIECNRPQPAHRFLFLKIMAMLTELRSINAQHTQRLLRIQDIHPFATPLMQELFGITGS
Assay endpoint: IC50 (µM)
Value expressed in µM; do not type the unit.

Considering CC[C@H]1[C@@H](O)[C@@H]2[C@H](C[C@H](O)[C@]3(C)[C@@H]([C@H](C)C[C@H](C)C(=O)O)CC[C@@H]23)[C@@]2(C)CC[C@@H](O)C[C@@H]12 [Ih3e] , its IC50 with PXR (Homo sapiens) was recorded as 110

====

System: HepG2 cells
Assay: HepG2 cytotoxicity (ATP decrease)
Details: read-out: CYTOTOXICITY ATP decrease EC50; 4 h
pEC50: −log10 of the molar value.
Assay endpoint: pEC50

Per the records, this molecule ( `C[C@H](CCC(=O)O)[C@H]1CC[C@H]2[C@@H]3[C@@H](O)C[C@@H]4C[C@H](O)CC[C@]4(C)[C@H]3CC[C@]12C` ) has pEC50 equal to < 3.00

====

Assay: Stability in human liver microsomes
Details: microsomes
Assay endpoint: half-life

Per the records, this compound ( C[C@]12CC[C@H]3[C@@H](CCC4=CC(=O)CC[C@@]43C)[C@@H]1CC[C@@H]2O [Testosterone, reference compound] ) has half-life equal to 8 to 20 min

====

System under test: UniProt Q14994
Sequence (Q14994 109-352 limits assumed): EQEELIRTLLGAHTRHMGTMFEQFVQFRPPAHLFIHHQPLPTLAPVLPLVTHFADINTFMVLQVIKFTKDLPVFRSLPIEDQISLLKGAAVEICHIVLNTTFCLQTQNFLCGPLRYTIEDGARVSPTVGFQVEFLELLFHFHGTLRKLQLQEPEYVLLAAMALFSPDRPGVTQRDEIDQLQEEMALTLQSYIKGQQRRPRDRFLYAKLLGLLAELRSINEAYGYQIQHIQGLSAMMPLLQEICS
Assay: CAR coactivator recruitment (Lanthascreen)
Details: read-out: CAR Activation EC50
I'd appreciate it if you could supply EC50 values for the items below.

Per the records, this molecule ( `C[C@H](CCC(=O)O)[C@H]1CC[C@H]2[C@@H]3[C@@H](O)C[C@@H]4C[C@H](O)CC[C@]4(C)[C@H]3CC[C@]12C` ) has EC50 equal to > 250 µM

Per the records, this molecule ( `C[C@H](CCC(=O)O)[C@H]1CC[C@H]2[C@@H]3[C@H](O)C[C@@H]4C[C@H](O)CC[C@]4(C)[C@H]3CC[C@]12C` ) has EC50 equal to > 250 µM

Per the records, this molecule ( `CC[C@H]1[C@@H](O)[C@@H]2[C@H](C[C@H](O)[C@]3(C)[C@@H]([C@H](C)C[C@H](C)C(=O)O)CC[C@@H]23)[C@@]2(C)CC[C@@H](O)C[C@@H]12` ) has EC50 equal to > 250 µM

====

Assay: Biliary secretion and metabolism in bile fistula rat, id and iv infusion
Details: rat, bile, iv, 1 μmol/kg/min
Assay endpoint: fraction unbound at 4 h
The answer should be a number; do not append a unit.

Per the records, this molecule ( C[C@H](CCC(=O)O)[C@H]1CC[C@H]2[C@@H]3[C@H](O)C[C@@H]4C[C@H](O)CC[C@]4(C)[C@H]3CC[C@]12C [CDCA, ChenoDeoxyCholicAcid] ) has fraction unbound at 4 h equal to 0.04

====

Assay: Biliary secretion and metabolism in bile fistula rat, id and iv infusion
Details: rat, in vivo, 1 μmol/kg/min
I'd appreciate it if you could supply fraction unbound at 4 h values for the items below.
The answer should be a number; do not append a unit.

Per the records, this compound ( `CC[C@H]1[C@@H](O)[C@@H]2[C@H](C[C@H](O)[C@]3(C)[C@@H]([C@H](C)C[C@@H](C)C(=O)O)CC[C@@H]23)[C@@]2(C)CC[C@@H](O)C[C@@H]12` ) has fraction unbound at 4 h equal to 0.68

Per the records, this compound ( `CC[C@H]1[C@@H](O)[C@@H]2[C@H](C[C@H](O)[C@]3(C)[C@@H]([C@H](C)C[C@H](C)C(=O)O)CC[C@@H]23)[C@@]2(C)CC[C@@H](O)C[C@@H]12` ) has fraction unbound at 4 h equal to 0.94

====

Assay: in vitro
Details: human, HepG2 cells
I'd appreciate it if you could supply EC50 at 4 h values for the items below.
Value expressed in µM; do not type the unit.

Per the records, this compound ( `CC/C(=C(\c1ccccc1)c1ccc(OCCN(C)C)cc1)c1ccccc1` ) has EC50 at 4 h equal to 47

Per the records, this compound ( `C[C@H](CCC(=O)O)[C@H]1CC[C@H]2[C@@H]3CC[C@@H]4C[C@H](O)CC[C@]4(C)[C@H]3CC[C@]12C` ) has EC50 at 4 h equal to 84

# credit: patent US8114862B2
